- Tested on: C. difficile CD196
- procedureDetails: Growth inhibition assay (MIC/IC50), 96-well
- Assay type: cell-based
- experimentalParameters: sigmoidal fit
observationType: IC50 (µM)
Number only, in µM; omit the unit.

Record lookup: for C. difficile CD196, what IC50 belongs to O=C(COC(=O)Cc1coc2ccc3ccccc3c12)Nc1nnc(-c2ccccc2)o1 [Compound 1771] ?
4.3

====

- Tested on: B. anthracis Sterne
- procedureDetails: microbe, parasite or virus in culture
- Format: cell-based
- experimentalParameters: Bacillus anthracis
observationType: pIC50
pIC50 here: minus log base 10 of the concentration, concentration in moles per litre.

// pIC50 lookup, key: O=C(COC(=O)Cc1coc2cc3c(cc12)CCC3)Nc1nnc(-c2ccccc2)o1 [Compound 1771-7]
4.62

// pIC50 lookup, key: Cc1cc2occ(CC(=O)OCC(=O)Nc3nnc(-c4ccccc4)o3)c2cc1C [Compound 1771-6]
4.83

// pIC50 lookup, key: CC(=O)COC(=O)Cc1coc2ccc3ccccc3c12 [Compound 1771-1]
3.77

// pIC50 lookup, key: O=C(COC(=O)Cc1ccccc1)Nc1nnc(-c2ccccc2)o1 [Compound 1771-4]
3.65

// pIC50 lookup, key: O=C(COC(=O)Cc1c[nH]c2ccccc12)Nc1nnc(-c2ccccc2)o1 [Compound 1771-5]
4.06

// pIC50 lookup, key: CC1CCCCN1S(=O)(=O)c1ccc(C(=O)Nc2nnc(-c3cccs3)o2)cc1 (stereo not drawn) [Compound 1650-M01]
4.95

// pIC50 lookup, key: COc1cccc(-c2nnc(NC(=O)c3ccc(S(=O)(=O)N(Cc4ccccc4)C(C)C)cc3)o2)c1
6.00

====

- System: C. perfringens SM101
- Format: cell-based
- experimentalParameters: nitrogen atmosphere, 37° C., 18-22 hours; sigmoidal fit
observationType: pIC50
pIC50 here: minus log base 10 of the concentration, concentration in moles per litre.

// pIC50 lookup, key: O=C(COC(=O)Cc1coc2ccc3ccccc3c12)Nc1nnc(-c2ccccc2)o1 [Compound 1771]
5.60

====

- System: S. aureus RN4220 colony isolates from gradient plates with 10-200 μM compound 1771
- procedureDetails: Susceptibility of colony isolates from compound 1771 gradient plates
- Format: cell-based
- experimentalParameters: Isolate 2
observationType: IC50 (µM)
Number only, in µM; omit the unit.

Record lookup: for S. aureus RN4220 colony isolates from gradient plates with 10-200 μM compound 1771, what IC50 belongs to O=C(COC(=O)Cc1coc2ccc3ccccc3c12)Nc1nnc(-c2ccccc2)o1 [Compound 1771] ?
9.2

====

- Tested on: S. aureus RN4220 (MSSA)
- procedureDetails: microbe, parasite or virus in culture
- Format: cell-based
- experimentalParameters: Staphylococcus aureus, MSSA
observationType: MIC

// MIC lookup, key: CNC(=O)COC(=O)Cc1coc2ccc3ccccc3c12 [Compound 1771-2]
> 400 µM

// MIC lookup, key: O=C(COC(=O)Cc1ccccc1)Nc1nnc(-c2ccccc2)o1 [Compound 1771-4]
> 400 µM

// MIC lookup, key: COc1cccc(-c2nnc(NC(=O)c3ccc(S(=O)(=O)N(Cc4ccccc4)C(C)C)cc3)o2)c1
3.1 µM

// MIC lookup, key: O=C(COC(=O)Cc1coc2cc3c(cc12)CCC3)Nc1nnc(-c2ccccc2)o1 [Compound 1771-7]
50 µM

// MIC lookup, key: CC(=O)COC(=O)Cc1coc2ccc3ccccc3c12 [Compound 1771-1]
> 400 µM

// MIC lookup, key: O=C(COC(=O)Cc1c[nH]c2ccccc12)Nc1nnc(-c2ccccc2)o1 [Compound 1771-5]
> 400 µM

// MIC lookup, key: Cc1cc2occ(CC(=O)OCC(=O)Nc3nnc(-c4ccccc4)o3)c2cc1C [Compound 1771-6]
50 µM

// MIC lookup, key: CC1CCCCN1S(=O)(=O)c1ccc(C(=O)Nc2nnc(-c3cccs3)o2)cc1 (stereo not drawn) [Compound 1650-M01]
25 µM

// MIC lookup, key: CC(NC(=O)COC(=O)Cc1coc2ccc3ccccc3c12)c1ccccc1 (stereo not drawn) [Compound 1771-3]
> 400 µM

====

- System: S. aureus - MRSA USA300
- procedureDetails: microbe, parasite or virus in culture
- Type: cell-based
- experimentalParameters: Staphylococcus aureus
Assignment: determine reported IC50 for the given compounds.
Number only, in µM; omit the unit.

// IC50 lookup, key: CC1CCCCN1S(=O)(=O)c1ccc(C(=O)Nc2nnc(-c3cccs3)o2)cc1 (centres unmarked)
8.4

// IC50 lookup, key: COc1cccc(-c2nnc(NC(=O)c3ccc(S(=O)(=O)N(Cc4ccccc4)C(C)C)cc3)o2)c1
1.3

====

- System: S. aureus RN4220 colony isolates from gradient plates with 10-200 μM compound 1771
- procedureDetails: Susceptibility of colony isolates from compound 1771 gradient plates
- Assay type: cell-based
- experimentalParameters: Isolate 1
observationType: pIC50
pIC50 here: minus log base 10 of the concentration, concentration in moles per litre.

Record lookup: for S. aureus RN4220 colony isolates from gradient plates with 10-200 μM compound 1771, what pIC50 belongs to O=C(COC(=O)Cc1coc2ccc3ccccc3c12)Nc1nnc(-c2ccccc2)o1 ?
5.06

====

- System: E. faecalis - VRE V583
- procedureDetails: microbe, parasite or virus in culture
- Assay type: cell-based
- experimentalParameters: 37° C., 18-22 hours, OD600; sigmoidal fit; read-out: IC50
Assignment: determine reported IC50 for the given compounds.
Number only, in µM; omit the unit.

// IC50 lookup, key: COc1cc(OC)cc(-c2nnc(NC(=O)c3ccc(S(=O)(=O)N(C)c4ccccc4)cc3)o2)c1 [Compound 1650-I01]
55.6

// IC50 lookup, key: O=C(COC(=O)Cc1coc2ccc3ccccc3c12)Nc1nnc(-c2ccccc2)o1 [Compound 1771]
27.3
